From: patent US6340694B1

# system-under-test: COX-2 (Mus musculus, UniProt Q05769)
# Construct: endogenous in cells; host or cells: peritoneal macrophages of C57BL/6 mouse, aspirin-pretreated, LPS-induced
# protocol-notes: Evaluation of COX-2's inhibition efficacy (PGE2 radioimmuno assay, LPS-induced, aspirin-pretreated peritoneal macrophages)
# Format: cell-based, C57BL/6 mouse
# measurement-context: 10 μg/ml
measurement-kind: inhibition at 10 µg/mL (%)

**Q:** Request the reported inhibition at 10 µg/mL associated with Cc1cccc(-c2c(-c3ccc(S(C)(=O)=O)cc3)oc3ccccc3c2=S)c1 [Example 39]
**A:** 86

(I) COc1ccc(-c2c(-c3ccc(S(C)(=O)=O)cc3)oc3ccccc3c2=O)cn1 [Example 18]
(II) CS(=O)(=O)c1ccc(-c2oc3ccccc3c(=O)c2-c2ccc(C(F)(F)F)nc2)cc1 [Example 21]
**Q:** For the pair I and II , which entry has the numerically smaller recorded inhibition at 10 µg/mL? Please identify the chosen entry by its label.
**A:** II

* * *

# system-under-test: COX-1 (Mus musculus, UniProt P22437)
# Construct: there is no pre-treatment of aspirin and LPS in the adhesion of macrophage; endogenous in cells; host or cells: peritoneal macrophages of C57BL/6 mouse, without aspirin and LPS pre-treatment
# Sequence (P22437 27-602): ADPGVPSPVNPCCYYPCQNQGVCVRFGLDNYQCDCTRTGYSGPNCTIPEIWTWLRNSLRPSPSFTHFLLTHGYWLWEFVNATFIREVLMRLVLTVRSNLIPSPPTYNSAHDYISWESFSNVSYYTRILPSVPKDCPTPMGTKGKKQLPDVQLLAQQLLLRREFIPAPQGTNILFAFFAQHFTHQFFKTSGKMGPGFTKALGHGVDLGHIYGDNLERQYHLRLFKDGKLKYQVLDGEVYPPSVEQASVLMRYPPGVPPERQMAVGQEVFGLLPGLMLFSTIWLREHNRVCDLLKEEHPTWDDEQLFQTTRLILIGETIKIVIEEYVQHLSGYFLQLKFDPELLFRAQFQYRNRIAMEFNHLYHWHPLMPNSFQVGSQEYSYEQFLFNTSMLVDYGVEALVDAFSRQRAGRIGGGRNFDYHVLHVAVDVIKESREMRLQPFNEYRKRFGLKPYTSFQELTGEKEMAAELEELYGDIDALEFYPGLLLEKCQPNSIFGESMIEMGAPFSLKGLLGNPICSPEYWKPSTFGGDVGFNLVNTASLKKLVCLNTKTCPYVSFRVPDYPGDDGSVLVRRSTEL
# protocol-notes: Evaluation of COX-1's inhibition efficacy (macrophages without aspirin and LPS pre-treatment)
# Assay type: cell-based, C57BL/6 mouse
# measurement-context: 10 μg/ml
measurement-kind: inhibition at 10 µg/mL (%)

// known answers, use as guide
**Q:** Request the reported inhibition at 10 µg/mL associated with NS(=O)(=O)c1ccc(-c2oc3ccc(F)cc3c(=O)c2-c2ccc(F)cc2)cc1
**A:** 48

**Q:** Request the reported inhibition at 10 µg/mL associated with NS(=O)(=O)c1ccc(-c2oc3ccccc3c(=O)c2-c2ccccc2F)cc1
**A:** 60

**Q:** Request the reported inhibition at 10 µg/mL associated with NS(=O)(=O)c1ccc(-c2oc3ccc(F)cc3c(=S)c2-c2ccc(F)cc2)cc1
**A:** 83

**Q:** Request the reported inhibition at 10 µg/mL associated with NS(=O)(=O)c1ccc(-c2oc3ccccc3c(=S)c2-c2ccc(F)cc2)cc1
**A:** 90

**Q:** Request the reported inhibition at 10 µg/mL associated with CS(=O)(=O)c1ccc(-c2oc3ccccc3c(=O)c2-c2cccnc2)cc1
**A:** 13

**Q:** Request the reported inhibition at 10 µg/mL associated with COc1ccc(-c2c(-c3ccc(S(N)(=O)=O)cc3)oc3ccccc3c2=O)cc1
**A:** 84

**Q:** Request the reported inhibition at 10 µg/mL associated with NS(=O)(=O)c1ccc(-c2oc3cc(F)ccc3c(=O)c2-c2ccc(Cl)c(Cl)c2)cc1
**A:** 76

**Q:** Request the reported inhibition at 10 µg/mL associated with NS(=O)(=O)c1ccc(-c2oc3c(Cl)ccc(O)c3c(=O)c2-c2ccc(F)cc2)cc1
**A:** 80

(a) NS(=O)(=O)c1ccc(-c2oc3ccccc3c(=O)c2-c2ccc(F)cc2)cc1
(b) CS(=O)(=O)c1ccc(-c2oc3ccccc3c(=O)c2-c2ccccn2)cc1
(c) NS(=O)(=O)c1ccc(-c2oc3cc(F)ccc3c(=O)c2-c2cccc(F)c2)cc1
**Q:** Ascending by inhibition at 10 µg/mL, please: list the compounds accordingly. Rank the items, then write their labels in that order.
**A:** b, c, a
(b: 17%, c: 38%, a: 67%)

* * *

# system-under-test: COX-2 (Mus musculus, UniProt Q05769)
# Construct: endogenous in cells; host or cells: peritoneal macrophages of C57BL/6 mouse, aspirin-pretreated, LPS-induced
# Sequence (Q05769 18-604): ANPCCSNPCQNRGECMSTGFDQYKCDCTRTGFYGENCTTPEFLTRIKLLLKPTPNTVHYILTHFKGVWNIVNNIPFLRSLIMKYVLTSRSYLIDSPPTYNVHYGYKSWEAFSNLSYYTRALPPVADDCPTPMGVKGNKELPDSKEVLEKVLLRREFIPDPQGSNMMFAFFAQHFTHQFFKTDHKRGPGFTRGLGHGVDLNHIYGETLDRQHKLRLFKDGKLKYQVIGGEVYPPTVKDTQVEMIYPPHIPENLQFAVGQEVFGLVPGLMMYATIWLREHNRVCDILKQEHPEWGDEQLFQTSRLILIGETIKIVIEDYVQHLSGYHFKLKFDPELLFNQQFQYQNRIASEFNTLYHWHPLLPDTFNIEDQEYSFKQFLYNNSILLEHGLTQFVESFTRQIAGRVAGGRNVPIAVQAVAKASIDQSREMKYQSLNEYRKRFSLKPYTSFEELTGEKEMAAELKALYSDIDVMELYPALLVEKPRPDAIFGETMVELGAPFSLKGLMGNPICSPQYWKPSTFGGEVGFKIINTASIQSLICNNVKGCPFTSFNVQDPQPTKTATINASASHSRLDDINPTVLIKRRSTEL
# protocol-notes: Evaluation of COX-2's inhibition efficacy (PGE2 radioimmuno assay, LPS-induced, aspirin-pretreated peritoneal macrophages)
# Assay type: cell-based, C57BL/6 mouse
# measurement-context: 0.1 μg/ml
measurement-kind: inhibition at 0.1 µg/mL (%)

(a) NS(=O)(=O)c1ccc(-c2oc3ccc(F)cc3c(=O)c2-c2ccc(F)cc2)cc1
(b) CS(=O)(=O)c1ccc(-c2oc3ccccc3c(=S)c2-c2cccc(F)c2)cc1
**Q:** Parameter check: reported inhibition at 0.1 µg/mL is higher for which label, a or b ? Please identify the chosen entry by its label.
**A:** a

(1) NS(=O)(=O)c1ccc(-c2oc3cc(F)ccc3c(=O)c2-c2cccc(F)c2)cc1
(2) Cc1ccc(-c2c(-c3ccc(S(C)(=O)=O)cc3)oc3ccccc3c2=O)cc1
(3) CS(=O)(=O)c1ccc(-c2oc3ccccc3c(=O)c2-c2ccccc2)cc1
**Q:** Ascending by inhibition at 0.1 µg/mL, please: list the compounds accordingly. Rank the items, then write their labels in that order.
**A:** 2, 3, 1

(a) NS(=O)(=O)c1ccc(-c2oc3ccccc3c(=O)c2-c2ccccc2)cc1
(b) NS(=O)(=O)c1ccc(-c2oc3ccc(F)cc3c(=O)c2-c2ccccc2)cc1
**Q:** Parameter check: reported inhibition at 0.1 µg/mL is higher for which label, a or b ? Please identify the chosen entry by its label.
**A:** a
(a: 76%, b: 23%)

(I) CS(=O)(=O)c1ccc(-c2oc3ccccc3c(=S)c2-c2ccccc2)cc1
(II) NS(=O)(=O)c1ccc(-c2oc3ccccc3c(=O)c2-c2ccc(F)cc2)cc1
**Q:** For the pair I and II , which entry has the numerically smaller recorded inhibition at 0.1 µg/mL? Please identify the chosen entry by its label.
**A:** I
(I: 47%, II: 73%)

(A) CS(=O)(=O)c1ccc(-c2oc3ccccc3c(=O)c2-c2ccc(Cl)cc2Cl)cc1
(B) CS(=O)(=O)c1ccc(-c2oc3ccccc3c(=S)c2-c2cccc(Cl)c2)cc1
(C) COc1ccc(-c2c(-c3ccc(S(C)(=O)=O)cc3)oc3ccccc3c2=O)cc1
(D) CS(=O)(=O)c1ccc(-c2oc3ccccc3c(=O)c2-c2cccc(Cl)c2)cc1
**Q:** Ascending by inhibition at 0.1 µg/mL, please: list the compounds accordingly. Rank the items, then write their labels in that order.
**A:** B, C, D, A
(B: 6%, C: 14%, D: 22%, A: 39%)

* * *

# system-under-test: COX-2 (Mus musculus)
# Construct: endogenous in cells; host or cells: peritoneal macrophages of C57BL/6 mouse, aspirin-pretreated, LPS-induced
# protocol-notes: Evaluation of COX-2's inhibition efficacy (PGE2 radioimmuno assay, LPS-induced, aspirin-pretreated peritoneal macrophages)
# Format: cell-based, C57BL/6 mouse
# measurement-context: 10 μg/ml
measurement-kind: inhibition at 10 µg/mL (%)

**Q:** Request the reported inhibition at 10 µg/mL associated with Cc1ccc(-c2c(-c3ccc(S(C)(=O)=O)cc3)oc3ccccc3c2=O)cc1 [Example 3]
**A:** 72

**Q:** Request the reported inhibition at 10 µg/mL associated with CS(=O)(=O)c1ccc(-c2oc3ccccc3c(=S)c2-c2cccc(Cl)c2Cl)cc1 [Example 38]
**A:** 96

**Q:** Request the reported inhibition at 10 µg/mL associated with Cc1ccc(-c2c(-c3ccc(S(N)(=O)=O)cc3)oc3ccc(F)cc3c2=O)cc1 [Example 49]
**A:** 92

**Q:** Request the reported inhibition at 10 µg/mL associated with CS(=O)(=O)c1ccc(-c2oc3ccccc3c(=O)c2-c2ccc(Cl)cc2Cl)cc1 [Example 5]
**A:** 100

**Q:** Request the reported inhibition at 10 µg/mL associated with Cc1ccc(-c2c(-c3ccc(S(C)(=O)=O)cc3)oc3ccccc3c2=O)cn1 [Example 20]
**A:** 85
